Reference source: patent US20160137639A1

# STUDY_TARGET: human RORγ (Homo sapiens)
# Construct: human, NM_005060.3 and from Ser253 to Lys518; expressed in transfected cells; host or cells: CHO cells (transient co-transfection with pG5-Luc reporter)
# Sequence (P51449 253-518): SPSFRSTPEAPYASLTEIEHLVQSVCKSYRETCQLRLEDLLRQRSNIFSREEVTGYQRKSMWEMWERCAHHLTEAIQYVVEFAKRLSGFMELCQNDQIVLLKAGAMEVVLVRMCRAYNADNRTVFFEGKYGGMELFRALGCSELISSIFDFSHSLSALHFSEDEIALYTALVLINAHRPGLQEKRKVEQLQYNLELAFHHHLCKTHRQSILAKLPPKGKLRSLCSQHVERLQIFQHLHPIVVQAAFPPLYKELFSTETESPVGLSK
# ASSAY_TEXT: Luciferase reporter gene assay of inhibitory effect against RORγ transcriptional activity (GAL4-hRORγ plasmid in CHO cells)
# Type: cell-based
# EXPERIMENTAL_CONDITIONS: read-out: LUC EC50 (μM) hRORg
OBSERVATION_TYPE: EC50

### Prompt API: value(readout=EC50, system=human RORγ (Homo sapiens)) for record Cc1cccc(CNC(=O)CCc2nnc(CCC(C)C)n2C2CC2)c1
### Response > 3 µM

### Prompt Can you handle CC(=O)N1C[C@H](C(=O)Nc2ccc(C)cc2C)[C@@H](c2nnc(CC3CC(C)(C)C3)n2C2CC2)C1 (racemic) next?
### Response < 3 µM

### Prompt Can you handle Cc1c(Cl)cccc1NC(=O)CCc1nnc(CCC(C)C)n1C1CC1 next?
### Response > 3 µM

### Prompt Can you handle CCn1c(CCC(=O)Nc2cccc3c2CCCC3)nnc1C1Cc2ccccc2C1 next?
### Response > 3 µM

### Prompt Can you handle Cc1ccc(NC(=O)CCc2nnn(CCC3CCCCC3)c2C2CC2)c(C)c1 next?
### Response < 3 µM

### Prompt Can you handle CC1(c2cc(-c3onc([C@@H](CCC(=O)O)CC(=O)Nc4ccc(Cl)cc4F)c3C3CC3)no2)CCCC1 next?
### Response < 3 µM

### Prompt Can you handle CC(=O)N[C@@H](CC(=O)Nc1ccc(C)cc1C)c1nnc(CCCC(C)C)n1C1CC1 next?
### Response < 3 µM

### Prompt Can you handle CCn1c(CCC(=O)Nc2ccccc2)nnc1C1Cc2ccccc2C1 next?
### Response > 3 µM
